These data points were gathered from paper PMC2363969.

- Target under test: HLA-DRB1*0404 (Homo sapiens, UniProt P01903+P01911, A100R/A169T/F76Y/I96L/K127E/L162R/M171V/N62H/P40V/Q125Y/R42H/S133A/S149N/S66Y/V209L/W38E)
- Assay protocol: solid-state competitive-binding assay, purified HLA-DR4
pIC50: −log10 of the molar value. Where no end group is shown, it is not given here.
Attribute measured: pIC50

ALHIYMDGTMSQVQGSA [tyrosinase365-381D]: 7.51
